# experimentalTarget: UniProt:Q9NR97
# Sequence (Q9NR97 27-1041): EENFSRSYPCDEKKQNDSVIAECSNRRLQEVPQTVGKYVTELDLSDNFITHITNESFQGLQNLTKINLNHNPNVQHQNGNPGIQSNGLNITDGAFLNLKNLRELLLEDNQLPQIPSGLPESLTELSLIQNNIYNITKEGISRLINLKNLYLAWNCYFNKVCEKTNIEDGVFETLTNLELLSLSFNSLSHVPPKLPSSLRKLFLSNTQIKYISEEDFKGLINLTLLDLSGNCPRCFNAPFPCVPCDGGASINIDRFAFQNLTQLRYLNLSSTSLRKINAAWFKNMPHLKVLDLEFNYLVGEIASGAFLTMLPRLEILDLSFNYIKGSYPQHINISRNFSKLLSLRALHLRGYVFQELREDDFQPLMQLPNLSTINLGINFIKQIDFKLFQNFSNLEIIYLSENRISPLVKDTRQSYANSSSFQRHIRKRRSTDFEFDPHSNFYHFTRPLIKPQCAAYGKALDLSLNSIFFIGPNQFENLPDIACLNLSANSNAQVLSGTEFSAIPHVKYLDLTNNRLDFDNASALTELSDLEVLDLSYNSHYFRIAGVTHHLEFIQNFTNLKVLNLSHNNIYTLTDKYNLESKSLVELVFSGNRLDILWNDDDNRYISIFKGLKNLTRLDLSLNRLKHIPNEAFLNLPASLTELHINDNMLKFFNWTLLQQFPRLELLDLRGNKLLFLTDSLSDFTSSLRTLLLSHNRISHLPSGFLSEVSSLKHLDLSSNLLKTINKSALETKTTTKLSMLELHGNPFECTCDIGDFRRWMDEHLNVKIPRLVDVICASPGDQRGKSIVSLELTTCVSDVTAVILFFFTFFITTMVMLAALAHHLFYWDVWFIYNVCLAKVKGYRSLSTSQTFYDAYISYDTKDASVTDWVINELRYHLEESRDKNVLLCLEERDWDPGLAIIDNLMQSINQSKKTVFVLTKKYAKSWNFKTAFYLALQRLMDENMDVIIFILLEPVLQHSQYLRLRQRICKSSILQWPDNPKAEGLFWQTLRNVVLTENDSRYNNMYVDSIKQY
# testMethodNotes: Agonistic activity of compounds on hTLR8 (HEK-Blue hTLR8 cells, QUANTI-Blue OD650)
# reportedConditions: 24 h
parameter: pEC50
Scale: negative log10 of molar concentration, which is what pEC50 denotes.

What does the data say about its pEC50? Entry: CCCCc1nc2c(N)nc3cccc(CCCCN)c3c2o1
8.19

Which pEC50 is listed for CCCCc1nc2c(N)nc3cccc(CCCCN)c3c2s1 ?
7.26

----------
# Tested on: human PBMCs
# testMethodNotes: Induction activity of compounds on TNF-α in human PBMCs (ELISA)
# Format: cell-based
# reportedConditions: PBMC, 24 h
The following compounds are shown together with reported pEC50 values.
Units for pEC50: none; it is -log10 of a concentration expressed in mol/L.

Example cases with answers are listed next.
| compound | result |
| --- | --- |
| CCCCc1nc2c(N)nc3cccc(CCCCN)c3c2s1 [compound 16] | 6.93 |
| CCCCc1nc2c(N)nc3cccc(CCCCCN)c3c2s1 [compound 14] | 6.83 |
| CCCN(Cc1ccc(N)cc1)C(=O)C1=Cc2ccc(-c3cncc(CO)c3)cc2N=C(N)C1 [compound 10] | 6.43 |
| CCCN(CCC)C(=O)C1=Cc2ccc(-c3ccc(C(=O)N4CCCC4)cc3)cc2N=C(N)C1 [VTX-2337, reference compound] | 5.99 |
| CCCCc1nc2c(N)nc3cccc(CCCCCCN)c3c2s1 [compound 17] | 6.88 |

Requested read-out pEC50, target or system human PBMCs, entry CCCN(Cc1ccc(N)cc1)C(=O)C1=Cc2ccc(-c3ccc4c(c3)C(=O)OC4)cc2N=C(N)C1 [compound 12]
6.45

Under human PBMCs: pEC50 value of CCCN(Cc1ccc(N)cc1)C(=O)C1=Cc2ccc(-c3ccc(C(=O)N4CC[C@@H](O)C4)cc3)cc2N=C(N)C1 [compound 11] ?
6.52
